Assay: SFT for CMC determination (surface tension, Wilhelmy plate technique)
Type: physicochemical
Conditions: air/water interface, (20.0±0.5)° C.
parameter: CMC (critical micellar concentration) (mM)

* OC[C@H]1O[C@H](O[C@H]2[C@H](O)[C@@H](O)[C@H](OCCCCC3(F)C(F)(F)C(F)(F)C(F)(F)C(F)(F)C3(F)F)O[C@@H]2CO)[C@H](O)[C@@H](O)[C@@H]1O [Compound 5b] | 2.29

[P] OC[C@H]1O[C@H](O[C@H]2[C@H](O)[C@@H](O)[C@H](OCCCC(F)(F)C(F)(F)C(F)(C(F)(F)F)C(F)(F)F)O[C@@H]2CO)[C@H](O)[C@@H](O)[C@@H]1O [Compound 8a]
[Q] OC[C@H]1O[C@H](O[C@H]2[C@H](O)[C@@H](O)[C@H](OCCCCCC3(F)C(F)(F)C(F)(F)C(F)(F)C(F)(F)C3(F)F)O[C@@H]2CO)[C@H](O)[C@@H](O)[C@@H]1O [Compound 5c]
Asked: Compare P and Q by numeric CMC (critical micellar concentration) and name the larger one. Give the label under which the chosen entry appears.
Given back: P

====

Experiment: SFT for CMC determination (surface tension, Wilhelmy plate technique)
Assay type: physicochemical
Settings: air/water interface, (20.0±0.5)° C.
parameter: CMC (critical micellar concentration) (mM)

These recorded examples may help you get a feel for the data.
* C[N+](C)(CCCCCC1(F)C(F)(F)C(F)(F)C(F)(F)C(F)(F)C1(F)F)CCCS(=O)(=O)[O-] | 3.20
* O=C(NCCCC1(F)C(F)(F)C(F)(F)C(F)(F)C(F)(F)C1(F)F)C(O)[C@H](O)[C@H](O[C@@H]1OC(CO)[C@H](O)[C@H](O)C1O)C(O)CO (some centres unmarked) | 6.32
* OC[C@H]1O[C@H](O[C@H]2[C@H](O)[C@@H](O)[C@H](OCCCC(F)(F)C(F)(F)C(F)(F)C(F)(F)C(F)(C(F)(F)F)C(F)(F)F)O[C@@H]2CO)[C@H](O)[C@@H](O)[C@@H]1O | 0.11

[a] OC[C@H]1O[C@H](O[C@H]2[C@H](O)[C@@H](O)[C@H](OCCCC3(F)C(F)(F)C(F)(F)C(F)(F)C(F)(F)C3(F)F)O[C@@H]2CO)[C@H](O)[C@@H](O)[C@@H]1O
[b] OC[C@H]1O[C@H](O[C@H]2[C@H](O)[C@@H](O)[C@H](OCCCCCC(F)(F)C(F)(F)C(F)(C(F)(F)F)C(F)(F)F)O[C@@H]2CO)[C@H](O)[C@@H](O)[C@@H]1O
Asked: Compare a and b and name the one whose reported CMC (critical micellar concentration) is smaller. Give the label under which the chosen entry appears.
Given back: b
